Test: in vitro
Assay type: cell-based
Details: human, human epidermal progenitors
Peptide text beside a SMILES is read from it.
observation-type: viability at 72 h, 3 µM
Note: a bare number is incomplete; add the unit.

compound: CCCCCCCCCCCCCCCC(=O)N[C@@H](Cc1ccc(O)cc1)C(=O)N[C@@H](CCCNC(=N)N)C(=O)N[C@@H](CO)C(=O)N[C@@H](CCCNC(=N)N)C(=O)N[C@@H](CCCCN)C(=O)N[C@@H](Cc1ccc(O)cc1)C(=O)N[C@@H](CO)C(=O)N[C@@H](CO)C(=O)N[C@@H](Cc1c[nH]c2ccccc12)C(=O)N[C@@H](Cc1ccc(O)cc1)C(N)=O [P4A, Palmitoyl-YRSRKYSSWY-amide] (HELM PEPTIDE1{[CCCCCCCCCCCCCCCC(=O)[*:2]].Y.R.S.R.K.Y.S.S.W.Y.[am]}$$$$V2.0)
viability at 72 h, 3 µM: 99%

From here, focus on the item given below.
query: Can you share its viability at 72 h, 3 µM? I mean this compound: CCCCCCCCCCCCCCCC(=O)N[C@@H](Cc1ccc(O)cc1)C(=O)N[C@@H](CCCNC(=N)N)C(=O)N[C@@H](CO)C(=O)N[C@@H](CCCNC(=N)N)C(=O)N[C@@H](CCCCN)C(=O)N[C@H](Cc1ccc(O)cc1)C(=O)N[C@@H](CO)C(=O)N[C@@H](CO)C(=O)N[C@@H](Cc1c[nH]c2ccccc12)C(=O)N[C@@H](Cc1ccc(O)cc1)C(N)=O [P4B, Palmitoyl-YRSRK[*Y]SSWY-amide] (HELM PEPTIDE1{[CCCCCCCCCCCCCCCC(=O)[*:2]].Y.R.S.R.K.[dY].S.S.W.Y.[am]}$$$$V2.0)
result: 99%

----------
Test: in vitro
Type: cell-based
Conditions: human, human epidermal progenitors
Peptide text beside a SMILES is read from it.
observation-type: viability at 72 h, 500 µM
Give me the value, and tack the unit on after it.

compound: CCCCCCCCCCCCCCCC(=O)N[C@@H](Cc1ccc(O)cc1)C(=O)N[C@@H](CCCNC(=N)N)C(=O)N[C@@H](CO)C(=O)N[C@@H](CCCNC(=N)N)C(=O)N[C@@H](CCCCN)C(=O)N[C@@H](Cc1ccc(O)cc1)C(=O)N[C@@H](CO)C(=O)N[C@@H](CO)C(=O)N[C@@H](Cc1c[nH]c2ccccc12)C(=O)N[C@@H](Cc1ccc(O)cc1)C(N)=O [P4A, Palmitoyl-YRSRKYSSWY-amide] (HELM PEPTIDE1{[CCCCCCCCCCCCCCCC(=O)[*:2]].Y.R.S.R.K.Y.S.S.W.Y.[am]}$$$$V2.0)
value-observed: 96%

query: Returns the measured viability at 72 h, 500 µM for the input compound. Input: CCCCCCCCCCCCCCCC(=O)N[C@@H](Cc1ccc(O)cc1)C(=O)N[C@@H](CCCNC(=N)N)C(=O)N[C@@H](CO)C(=O)N[C@@H](CCCNC(=N)N)C(=O)N[C@@H](CCCCN)C(=O)N[C@H](Cc1ccc(O)cc1)C(=O)N[C@@H](CO)C(=O)N[C@@H](CO)C(=O)N[C@@H](Cc1c[nH]c2ccccc12)C(=O)N[C@@H](Cc1ccc(O)cc1)C(N)=O [P4B, Palmitoyl-YRSRK[*Y]SSWY-amide] (HELM PEPTIDE1{[CCCCCCCCCCCCCCCC(=O)[*:2]].Y.R.S.R.K.[dY].S.S.W.Y.[am]}$$$$V2.0)
result: 95%
